- procedure-text: amyloid nucleation score (Sup35N fusion, yeast selection) (log enrichment); library NNK2; higher = more nucleation; inactive = no reads after selection;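 further: zero at mode of non-aggregating sequences after 7 days selection at 30°C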
The label depends only on amyloid nucleation score: 1 (yes) if it is at least 0.6, 0 (no) if it is smaller.

Consider the following illustrative entries.
substance: LGIVDRTFQSMPYVGWMMV
assigned-class: 0 (no)
--
substance: NWSFASKVGLQMSKHAVTV
assigned-class: 0 (no)
--
substance: LQRRCLINKNTGTPRLSN
assigned-class: 0 (no)

Is the recorded value of amyloid nucleation score equal to or greater than 0.6 for this substance? `VLDVVLYPGKF` 0 (no)

Is the recorded value of amyloid nucleation score equal to or greater than 0.6 for this substance? `VQEERAFKWVR` 0 (no)

Is the recorded value of amyloid nucleation score equal to or greater than 0.6 for this substance? `GKVRRIIWLSCKNG` 1 (yes)
